# Organism: Oryctolagus cuniculus
# Experiment: Chronotropic effect in rabbit heart assessed as change in heart rate at 3 x 10^-5 M by electrocardiogram analysis relative to control
# Assay type: ADME, organism-based
# Assay setup: in vivo, 30 µM
Measurement name: Activity

Structure	Measurement name	Measured
O=C(CN1CCN(Cc2cccc(Cl)c2)CC1)Nc1ccc2c(c1)CCc1nnc(-c3cccc(Cl)c3)n1-2	Activity	Toxic
O=C(CN1CCN(Cc2ccccc2F)CC1)Nc1ccc2c(c1)CCc1nnc(-c3cccc(Cl)c3)n1-2	Activity	Non-toxic
O=C(CN1CCN(Cc2ccc(F)cc2)CC1)Nc1ccc2c(c1)CCc1nnc(-c3cccc(Cl)c3)n1-2	Activity	Non-toxic
COc1ccc(CN2CCN(CC(=O)Nc3ccc4c(c3)CCc3nnc(-c5cccc(Cl)c5)n3-4)CC2)cc1	Activity	Non-toxic
O=C(CN1CCN(Cc2ccccc2)CC1)Nc1ccc2c(c1)CCc1nnc(-c3ccccc3Cl)n1-2	Activity	Non-toxic
